- subject-of-test: UniProt:P19099
- Sequence (P19099 25-503): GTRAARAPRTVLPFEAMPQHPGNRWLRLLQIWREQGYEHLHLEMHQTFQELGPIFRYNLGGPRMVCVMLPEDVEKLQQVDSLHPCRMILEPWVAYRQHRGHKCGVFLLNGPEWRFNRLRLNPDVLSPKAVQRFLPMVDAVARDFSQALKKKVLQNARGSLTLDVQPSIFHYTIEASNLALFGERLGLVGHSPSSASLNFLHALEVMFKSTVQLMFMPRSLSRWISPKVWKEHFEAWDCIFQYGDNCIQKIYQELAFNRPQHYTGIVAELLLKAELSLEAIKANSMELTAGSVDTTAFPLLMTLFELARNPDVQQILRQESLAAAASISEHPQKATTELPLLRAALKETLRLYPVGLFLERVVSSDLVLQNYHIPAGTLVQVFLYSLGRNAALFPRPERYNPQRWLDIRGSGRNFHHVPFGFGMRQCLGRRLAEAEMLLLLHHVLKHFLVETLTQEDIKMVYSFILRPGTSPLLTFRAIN
- experiment-notes: G-402 cellular enzyme assay, human CYP11B2 (aldosterone release, HTRF)
- reported-conditions: G-402 cells expressing human CYP11B2; 1 μM Deoxycorticosterone
- Method: Specifically we developed stable G-402 cells expressing ectopically human CYP11B1, human CYP11B2, human CYP11A1, cynomolgus CYP11B1 or cynomolgus CYP11B2 enzyme activity. […] For assaying enzymatic activity, cells were plated onto 96 well plates and incubated for 16 h. An aliquot of the supernatant is then transferred and analyzed for the concentration of the expected product (Aldosterone for CYP11B2; Cortisol for CYP11B1). […]
Where a name gives a salt, the structure may show the parent alone.
endpoint-label: log10 of EC50 (log10 of the value in µM)
Note: values are log10 of EC50 expressed in µM.

// known answers, use as guide
| compound | subject-of-test | log10 of EC50 |
| --- | --- | --- |
| CCC(=O)NC1CCc2c(-c3cc4c(cc3F)N(C)C(=O)CC4)cncc21 (single isomer, unassigned; (-)) [Example 23] | UniProt:P19099 | 0.14 |
| CCC(=O)N[C@H]1c2cncc(-c3ccc4c(c3)CCC(=O)N4C)c2CC[C@@H]1C (single isomer, unassigned) | UniProt:P19099 | -1.84 |
| CCC(=O)N[C@@H]1CCCc2c(-c3ccc4c(c3)CCC(=O)N4C)cncc21 | UniProt:P19099 | -1.85 |
| CCS(=O)(=O)NC1CCc2c(-c3cc4c(cc3F)N(C)C(=O)CC4)cncc21 (single isomer, unassigned; (+)) [Example 27] | UniProt:P19099 | -1.95 |
| CCC(=O)NC1CCCc2c(-c3ccc4c(c3)CCC(=O)N4C)cncc21 (single isomer, unassigned; (+)) [Example 3] | UniProt:P19099 | -1.85 |
| CCS(=O)(=O)NC1CCCc2c(-c3cc4c(cc3Cl)N(C)C(=O)CC4)cncc21 (racemic) | UniProt:P19099 | -0.41 |
| CN1C(=O)CCc2cc(-c3cncc4c3CCCN4CCN)ccc21 [Example 12, hydrochloride] | UniProt:P19099 | -2.40 |
| CCS(=O)(=O)NCCN1CCCc2c(-c3ccc4c(c3)CCC(=O)N4C)cncc21 | UniProt:P19099 | -1.96 |
| CCS(=O)(=O)NC1CCCc2c(-c3cc(F)c4c(c3)CCC(=O)N4C)cncc21 (racemic) | UniProt:P19099 | -0.62 |
| CCS(=O)(=O)NC1CCCc2c(-c3cc4c(cc3F)N(C)C(=O)CC4)cncc21 (single isomer, unassigned; (+)) [Example 32] | UniProt:P19099 | -1.11 |

Task: Suppose we examine the compound CCC(=O)NC1CCc2c(-c3ccc4c(c3)CCC(=O)N4C)cncc21 (racemic) [Example 7] ; what log10 of EC50 value has been reported?
Output: -1.92

Task: Suppose we examine the compound CCC(=O)NC1CCCc2c(-c3ccc4c(c3)CCC(=O)N4C)cncc21 (single isomer, unassigned; (-)) [Example 2] ; what log10 of EC50 value has been reported?
Output: 0.01

Task: Suppose we examine the compound CCC(=O)NC1CCc2c(-c3ccc4c(c3)CCC(=O)N4C)cncc21 (single isomer, unassigned; (+)) [Example 9] ; what log10 of EC50 value has been reported?
Output: -1.89

Task: Suppose we examine the compound CCS(=O)(=O)NC1CCCc2c(-c3ccc4c(c3)CCC(=O)N4C)cncc21 (racemic) [Example 4] ; what log10 of EC50 value has been reported?
Output: -1.01

Task: Suppose we examine the compound CCC(=O)NC1CCCc2c(-c3cc4c(cc3F)N(C)C(=O)CC4)cncc21 (single isomer, unassigned; (-)) [Example 29] ; what log10 of EC50 value has been reported?
Output: 0.25

Task: Suppose we examine the compound CCC(=O)NC1CCc2c(-c3cc4c(cc3F)N(C)C(=O)CC4)cncc21 (single isomer, unassigned; (+)) [Example 24] ; what log10 of EC50 value has been reported?
Output: -2.42

Task: Suppose we examine the compound CCC(=O)NCCN1CCCc2c(-c3ccc4c(c3)CCC(=O)N4C)cncc21 ; what log10 of EC50 value has been reported?
Output: -1.85

Task: Suppose we examine the compound CCC(=O)N[C@H]1c2cncc(-c3ccc4c(c3)CCC(=O)N4C)c2CC[C@H]1C (single isomer, unassigned) ; what log10 of EC50 value has been reported?
Output: -1.35

Task: Suppose we examine the compound CCC(=O)NC1CCc2c(-c3cc4c(cc3F)N(C)C(=O)CC4)cncc21 (racemic) [Example 22] ; what log10 of EC50 value has been reported?
Output: -1.99

Task: Suppose we examine the compound CCC(=O)N[C@H]1c2cncc(-c3cc4c(cc3F)N(C)C(=O)CC4)c2CC[C@H]1C (single isomer, unassigned) ; what log10 of EC50 value has been reported?
Output: -1.58

Task: Suppose we examine the compound CCC(=O)N[C@H]1c2cncc(-c3ccc4c(c3)CCC(=O)N4C)c2CC[C@@H]1F (single isomer, unassigned) ; what log10 of EC50 value has been reported?
Output: -1.59

Task: Suppose we examine the compound CN1C(=O)CCc2cc(-c3cncc4c3CCCC4O)ccc21 (single isomer, unassigned) [Example 69] ; what log10 of EC50 value has been reported?
Output: -2.70

Task: Suppose we examine the compound CN1C(=O)CCc2cc(-c3cncc4c3CCCC4O)ccc21 (single isomer, unassigned) [Example 68] ; what log10 of EC50 value has been reported?
Output: -1.11

Task: Suppose we examine the compound CCC(=O)N[C@@H]1c2cncc(-c3ccc4c(c3)CCC(=O)N4C)c2CC[C@@H]1C (single isomer, unassigned) ; what log10 of EC50 value has been reported?
Output: -0.33
